Where do these numbers come from? They come from the NTF2 design screens of Basanta et al. (2020).

ASSAY_INFO: protease stability score; higher = more stable; yeast display proteolysis, trypsin and chymotrypsin;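 also: log10 excess protease needed over predicted unfolded state with 0 meaning unfolded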
Label MET for high-side protease stability score (at or above 0.7) and NOT MET for low-side protease stability score (below it).

{"columns": ["SEQUENCE_CONTENT", "ASSIGNED_LABEL"],
 "data": [
  ["DEDRARRLMEKMFKIILNGNDEEARKMGAPDVEYQYADKTFHGEEAMKYIVKVVKRVGVKVRQEKHEVHGDTATAHFQYENGDTTVETQAHVQYEGDKAKKVEVKNSDEVRKLVDQG", "NOT MET"],
  ["DEDQAQKLIDKMTEAMFKNDEETIRKVGKEDVEVKNADEEYKGVDTIVDLARKYKEQGIEFHLEQVHKEGDQVKFTAVVHVADRTVKVEVKYKADNGHVERTEVEWSQEVKKAFQQH", "MET"],
  ["DESARDIASTIVSALHNNNPSQFSENLDKDATLNIGDKRIHGKERAEEHLSNQIKSLRIQFDDYQVRVHNGDVIINLDYKRDHNGEPRRVKQRVTIQIHNGRAQSVVVKETS", "NOT MET"],
  ["EEEDVKRVEEDLHNGDPDRLRDLMDKDVSVEYGDKTVNGRENAAEIWEHIRRNVDRIRIVSMHVKNGKINFDLTAEVNGTKFQIRVVWELRNGRAKSVKIEVTDEEVKKLLDRLLQ", "MET"],
  ["DEERAQHLVDQIFRAFKRGDPEQFKKMFDPNARMHVGDQRYHGREDIIKFLQEIREQADTITLRKVTVHNGQADIIVDVQVDGRRVRIQILINYHNGKVKSLKIHYTDEELQKEIES", "MET"],
  ["DQRDVEKIATKLSEVVRTGDPHEFAKMADPNAKVEVGDKSWRGHEEIRDWLKQITDEADSIHVDSVTAQGDKIDMTITVDFNGKRVQFDIKIQMENGRIKKMKLDPDQQRKLER", "MET"],
  ["DQHAKRLFDEVVSAIKDGDPHQVKKQLDKNVRARVGDKTISGRETFAQQRKTERDEIEWDVEDYKADVNGDHIKVDMKVKSEHNGRPTSDKIDVDVQWHNGHVVRMEFKETR", "NOT MET"],
  ["DEEELDNAKEMVKALLHGNPDRAKQLADPNAHYHVGDKKVHGNDNWAKLVRKERQELRVKIDRVDIKSKGNKVSVDIDVVHDHNGQPQKRNYRLHVEIHNGKVRNVKIQHDG", "NOT MET"],
  ["DDDAVRRMKEFEEAKQHGDPDELRRLADPNVRLEYGDKEIHGRDTMAQTLKNEVDEIRMEVDFRHFTSQGDKVSIQAEQSRDNNGQPQSVKAQFDARFHNGRLKHLRVQLDG", "NOT MET"],
  ["DEDDQKNFSQMLNALDTGDEKRVVELADPNAKVEYGDKTYSGMEKYAHDRAKQRKEWRYHQTIDKVNVKNGRVEIHMKANFKINGQPRSMRFSVTVEAHNGKLKNLDFRFSEEDRKKLEG", "NOT MET"]
]}

====

# key: entry, value: protease stability score
ASSAY_INFO: protease stability score; higher = more stable; yeast display proteolysis, trypsin and chymotrypsin;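 also: log10 excess protease needed over predicted unfolded state with 0 meaning unfolded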
ASSAY_READOUT: protease stability score

{"columns": ["SEQUENCE_CONTENT", "OBS_VALUE"],
 "data": [
  ["DETDLERWARTFIEVFQTGDENRFRKMVDPNARLNVGEKNVHGKEEMAKAAKKLRDKVDHMHVRDLQINPPTIEIHIDFHHNGQKRSQVYYVEMHNGRVTEIHVQTS", 1.05],
  ["DEESRRKQAQEFNENLEQGNFEELMKLLDPNAHIIIGEKEVKGREDIRKQQEEDQRRIDHVQIQSVTAHGDKIRALIRFTVNGQQTEVHVVLSFHNGRVKEMKIHTK", -0.324],
  ["DEEEDAEKLLERREKVFRQGDPDQMQRMMDPNARIKVGDREVHGREEVDRTLLEQARKADHIRFELKDMRVQGDKVVLDVHVKFEVNGRHQSRQVQYVAQFHNGRYTFRSARER", 0.047],
  ["DTRARDIARRFWEAIRKNDPDKIKNQADENADFKVGDKTIHGMDHIIHHWEKVNKHARFQWERMEIKDSPNHVDVKYQFIVDVDGEPKTINATAQFQFHNGRIKNYEIQVDPEQFKEITK", 0.523],
  ["EEENSKLMEEIVKAISNGNPDRVRENMDPNARARYGDKRIHGMENILTQIERRWRQIRIQVDDVKLSVENGTINVDIQQRNDNNGQPDNFRLEASASVENGKVKEMNVVKRP", 0.014],
  ["DDENRKRAEEWLQAVQEGNEHQVMELADPNVRFVIGDKTLHGREQLSEWVKRVHDQMRFSVEIKHVRVHGDKVLITVRHTANVNGKPFDDTLIIKVVINNGKFQRIELRVDPEKLKHLKT", 1.01]
]}

====

# key: entry, value: protease stability score
ASSAY_INFO: protease stability score; higher = more stable; yeast display proteolysis, trypsin and chymotrypsin;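 also: log10 excess protease needed over predicted unfolded state with 0 meaning unfolded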
ASSAY_READOUT: protease stability score

{"columns": ["SEQUENCE_CONTENT", "ASSAY_READOUT", "OBS_VALUE"],
 "data": [
  ["DDEAKDIVEEVVREGDFRQHMRLADEDAKLEYGDKRLHGRERVSDMAQKINERVDHLEVESVSVRGEEVIITLVLNVDGQKFRMKLVMDVQGDKIKSVKLEARTEDNKKLMDRAFS", "protease stability score", 0.012],
  ["DEEHMQELAEELVKVMKRGDFKRYLDLASENAEVTYGEKSVRGREDLHKMQEELEKKVDHIHMKDFRVSGNQIHLFFVVHHDGRSREVVVTIEYHNGRITSVTYDEK", "protease stability score", -0.075],
  ["DESEEKELEDILRRNDWERMSELAPPDVHATVGDTRLHGMEQVLSLFQTLNKRADQIHVKTLSVHNGQLHAVIVMQFNGRRVELHFDFEVKNGEFTSARVQARTEEEEKVMKEVLR", "protease stability score", 1.05],
  ["DEKRLTELLEVMKHGDFDRLANLMDKDVRIEYGDKSVRGREQAQHLMEKQKKRADHVEWKEYHFQGDTVSVRLVVRINGKEVEYHQTYRVNNGKITDMEQRARDEDDERQLRRVEG", "protease stability score", -0.093],
  ["DEDKEKKINKDIADAWQNGDEQQMQKQIPPEVRIQVGDKTVHGREHIHKWMRRWRERVDHLQLKDMTAHNGNMRIKFVIRHNGRQDVRQVHIQVDNGTVHTASFDTE", "protease stability score", 0.43],
  ["DEDALDQVEEMMRNNNEQEIADRADKDVEVEYGDHELHGREDMQDWAEKWQQQVDHLEVKSVHKKGDHFKMKLRAVFNGQEYTFVMVVEVHNGKIKNIKYDATSKEVKEIQKEVLK", "protease stability score", -0.163],
  ["DQEHVKRRADTAMKAIQNGDPDEAVKQMDPDAKMRVGDHEITGREDVRRYVETLHRRVDHNHILSLTHHGETVVFNAVVKVNGRNVTVNWVLKFHNGRLKQVDINPDEEKRFQS", "protease stability score", 0.079],
  ["DEEVEEVIHRLVKALRTNNPDQVNQQLDKDARIKVGDKEIQGRDRYKRTVEQKIQEMNFHIHIKRLEVQGDKVRITAQESSEHNGQPRQRRLKFELRVKNGRVKSAEYHVDK", "protease stability score", 0.183],
  ["DDTNVRKVKEYLKAVEHGDEETLRENVDENATVQVGDHSIHGMDNIAKKIKKDRDELRWEIKELEAEAHNGHVNVRVDARYEVNGNPIEDKFTMHFKFENGRVESVEIRVPEEFQKRVDR", "protease stability score", 0.165],
  ["DERVKQQVETLERAVKHNDEDRLKELMDPNVRVRVGDRTVEGREEIAKQLVRTNNESRIEQKIDRVDVRGDKVHIDFQRREHHDGKPDSAKFNVLVKASNGRISEMEVHTNQ", "protease stability score", -0.248],
  ["DEERRDLAHRIFEAWKRNDPDTLRNLIDPNAKMVVGEDVLRGDEQIVKHVQDVHNRINMKIDIKSVRVEGDKVIVHAEVTANVNGRPVRIEVTFVIKNHNGKVKKIVIDVDPRDQRKMDS", "protease stability score", -0.13],
  ["DEEARKEIKKAARAYKTGDWQELVHQMDEDVKVEYGDHKIDGHEQVQKWVDENRKQLTMSVKSLSVELSGNTASVDMKHDARHNGRPRTQTAHIEIQAHNGRLKRVKIEYTQ", "protease stability score", -0.178],
  ["DEDQVRRIIQDLRRNNFEKMVELMDEDVKIDVGNYDYHGREAAHEILDRIRRQIDHIEYKSVTAQGDKIDVKAVAIINGKEWTFRVEVDADNGRIHSMKIRFRSEKEEQDYQKEVQ", "protease stability score", 1.11],
  ["DEKTLKELADHLIRAIETGNEHQFQKMADPNVKAQYGDSKVRGREDLAEYFKTLVDRADHIQFDHWDAQGNKVTMHFVLRVNGVDVRIVVFIHVTNGKIKHVRVHVTDPQEFRRMQG", "protease stability score", 0.515],
  ["DDEVKKFAEKFVTNLENNNPQELKSMADPNAKFEVGNKSVHGMDEYVRQVRERNEHMRFDVKRVQIRVNGNQIIINVHLHVNVNGRPVDLSYEVDINFDNGKIKYVRLDVDEDQEKRMTG", "protease stability score", 1.1],
  ["DEHAVRRLQEFARVLERGDESKAEQYLDPEVRITVGDREINGMKTFNNFLQEVSRQMRFSLQHVEARARNGKARIIMHFQVDHNGNPEQQRIDITASLHNGRMKRMHMRTDR", "protease stability score", 0.031],
  ["DEDAVNRYEEFVENLKSNNEHKLSEYLDPNVRLVIGDKTLHGKDNFRRRVRHMTKHMRLQLNYKDLKVQGEEIHVHADVRQTHDGKPQNTHFSASMRVNGDKAKEITIKDDG", "protease stability score", 0.207],
  ["DEHEKQKKAKDAADLIRHNNPERVAELFDEDARVRVGDHTYHGREHIVRVLQTLVDQIDHMQLTDLDVHGETLRLHIVMQINGKKVDMQLDIELKNGKMKRMRFDPDRVRDVQK", "protease stability score", 0.466],
  ["DHTKEARQVRRFVHALETGDPDRAASQLDKNAKVTVGDKRVHGRENVRTLMQEFIREADHFRLRDMRDDGEKFNLLIEFEVNGKRLRMHIDIVISNGTMKVVRFDPNVVKRMEN", "protease stability score", 0.144],
  ["DEDKNKKRAEEWQRILEDNDEERFSKLADKDVRFVIGDKEVHGSEQAETWIRTIKHRVDHIQLEDMKVNGNKIVIDLVMVHNGRKHRYKVVMEFHNGSVKYVQYNDS", "protease stability score", -0.06],
  ["DTEERAEDFMHIMQNAATHGDPNIQRHLADKHVRVEVGDKTVSGREEHKTEFDKRVKQYDSISVNMRKMEIDGDKARFNVEERYNTNGRNQHHDVKQQAIVQGDKVHLDRVDNK", "protease stability score", -0.603],
  ["DEEDQERLEDFLRALKKGDEERLKELVDPNAQFEIGDTTYHGREHFLHTMRRKNEEIRVERDFHTVRAENGHVEMHFHAQENHNGRPRTFTAHATAVIHNGRLKSFVLKVDG", "protease stability score", -0.026]
]}
